System: Escherichia coli
Test: Antibacterial activity against Escherichia coli ATCC 35218 assessed as reduction in microbial growth after 18 hrs by microbroth dilution method
Type: functional
Binarize MIC at 3 µg/mL; below is rule met, at or above is rule not met.

Reference set, count: 2
{"columns": ["item-smiles", "assigned-category"],
 "data": [
  ["CC/C=C/C=C/[C@@]1(C)OC(c2ccsc2C)=C(C(=O)OC)C1=O", "rule met"],
  ["CC/C=C/C=C/[C@@]1(C)OC(c2cc(C(=O)O)sc2C)=C(C(=O)OC)C1=O", "rule met"]
]}

Here is the next item to consider.
Q) Field: below-cutoff. Rule: recorded MIC strictly less than 3 µg/mL. Subject: COC(=O)C1=C(c2ccsc2C)O[C@](C)(/C=C/CC[C@@H](C)O)C1=O
A) rule not met
